B1: CFHR2 (parent)
chain: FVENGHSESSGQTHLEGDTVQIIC

- Variants of: B1
- protocol-notes: protein stability index of a GFP-peptide fusion (GPS, HEK-293T) (PSI 1-6); higher = more stable;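 further: lentivirally expressed fusions sorted by FACS into six bins by GFP to DsRed ratio, PSI derived from sequencing read proportions per bin multiplied by bin number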
- experimental-setup: c terminus: a fixed tail appended
metric-name: protein stability index
// response body must contain only the number

Sample answers from the record:
T19D | 3.68
L15A | 3.22
C24M | 2.28

Look at this variant and give its reported protein stability index. G11S
2.48

And what about the variant G5K ?
2.64

And what about the variant V20T ?
3.74

And what about the variant V2G ?
3.62

And what about the variant V2L ?
3.59
